- Tested on: HDQ-P1
- measurement_notes: normalised viability (% of control), CellTiter-Blue; higher = more viable cells (about 100 = DMSO control)
- stated_conditions: 100 nM; incubation time: 72 h
The entries below come with measured normalised viability values attached.
Provide the reading as a plain figure in %.

{"columns": ["molecule_smiles", "measured_target", "unit_text", "normalised viability"],
 "data": [
  ["O=c1[nH]cc(F)c(=O)[nH]1", "HDQ-P1", "%", 99.9]
]}

// fetch HDQ-P1 normalised viability for O=C(c1ccc(OCCN2CCCCC2)cc1)c1c(-c2ccc(O)cc2)sc2cc(O)ccc12
107

Record: COc1cc(Nc2ncc(F)c(Nc3ccc4c(n3)NC(=O)C(C)(C)O4)n2)cc(OC)c1OC
99.5

Next up: C#Cc1cccc(Nc2ncnc3cc(OC)c(OCCCCCCC(=O)NO)cc23)c1
71.5

###

- System: HDQ-P1
- measurement_notes: normalised viability (% of control), CellTiter-Blue; higher = more viable cells (about 100 = DMSO control)
- stated_conditions: 10 nM; incubation time: 72 h
We begin with a simple list: items and their reported normalised viability.

{"columns": ["molecule", "measured_target", "observed_result"],
 "data": [
  ["COc1cc(Nc2ncc(F)c(Nc3ccc4c(n3)NC(=O)C(C)(C)O4)n2)cc(OC)c1OC", "HDQ-P1", "107%"],
  ["O=c1[nH]cc(F)c(=O)[nH]1", "HDQ-P1", "103%"],
  ["COC1=CC(c2cc3ccccc3[nH]2)=N/C1=C\\c1[nH]c(C)cc1C", "HDQ-P1", "90.4%"],
  ["O=C(c1ccc(OCCN2CCCCC2)cc1)c1c(-c2ccc(O)cc2)sc2cc(O)ccc12", "HDQ-P1", "90.2%"],
  ["CCCC(CCC)C(=O)O", "HDQ-P1", "139%"]
]}

Moving on to the next molecule.
Given COC(=O)C[C@](O)(CCCC(C)(C)O)C(=O)O[C@@H]1C(OC)=C[C@]23CCCN2CCc2cc4c(cc2[C@H]13)OCO4 [Omacetaxine mepesuccinate] , state its recorded normalised viability.
73%

###

- System: CAL-120
- measurement_notes: normalised response (% of control), CellTiter-Glo; higher = more viable cells (100 = DMSO, 0 = benzethonium chloride kill control)
- stated_conditions: incubation time: 72 h
Reported normalised response is given for each of the following compounds.
Write the value in % as a bare number.

// known answers, use as guide
{"columns": ["compound", "experimental_readout", "observed_result"],
 "data": [
  ["COC1=CC(c2cc3ccccc3[nH]2)=N/C1=C\\c1[nH]c(C)cc1C [Obatoclax] (10 nM)", "normalised response", 98.8],
  ["CCCC(CCC)C(=O)O [Valproic acid] (100000 nM)", "normalised response", 96.1],
  ["CCS(=O)(=O)c1cccc(-c2cc(C(=O)NC3CCN(C)CC3)c(C)c3[nH]c4ncc(C)cc4c23)c1 [TAK-901] (100 nM)", "normalised response", 81.5],
  ["C[C@@H]1CCN(C(=O)CC#N)C[C@@H]1N(C)c1ncnc2[nH]ccc12 [Tofacitinib] (0.5 nM)", "normalised response", 99],
  ["CCOc1cc2ncc(C#N)c(Nc3ccc(OCc4ccccn4)c(Cl)c3)c2cc1NC(=O)/C=C/CN(C)C [Neratinib] (0.1 nM)", "normalised response", 98.4]
]}

Record lookup: for CAL-120, what normalised response belongs to COC1=CC(c2cc3ccccc3[nH]2)=N/C1=C\c1[nH]c(C)cc1C [Obatoclax] (1000 nM) ?
94.2

And the next one, FC(F)c1nc2ccccc2n1-c1nc(N2CCOCC2)nc(N2CCOCC2)n1 [ZSTK474] (10 nM) ?
96.9

Same question for C[C@@H]1C=C2C(=O)O[C@@H]3CC[C@H](C1)[C@]23O [Galiellalactone] (5 nM) please.
105
